src = patent US6288077A

Let's look at some compounds and their measured TT Ctt2 (concentration that doubles the coagulation time).
Test system: human plasma
Assay: Thrombin time (TT) in human plasma, anti-coagulant activity
Type: biochemical
Settings: human plasma deficient in platelets, 2 min incubation at 37° C., Prest Thrombin
VALUE KIND: TT Ctt2 (concentration that doubles the coagulation time) (µM)

>>> df
                                chem_smiles  measure_unit  readout_number
0  Cl.N=C(N)c1ccc(CNC(=O)[C@]23C[C@H]2CCN3C(=O)[C@@H](Cc2ccccc2)NS(=O)(=O)Cc2ccccc2)cc1            µM            0.20
1  Cl.Cl.N=C(N)c1ccc(CNC(=O)[C@]23C[C@H]2CCCN3C(=O)[C@H](N)C(c2ccccc2)c2ccccc2)cc1            µM            0.05
2  Cc1nc(N)ccc1CNC(=O)[C@]12C[C@H]1CCCN2C(=O)[C@@H](CC1CCCCC1)NCC(=O)O.Cl.Cl            µM            0.12
3  CN[C@H](CC1CCCCC1)C(=O)N1CCC[C@@H]2C[C@@]21C(=O)NCc1ccc(N)nc1C.Cl.Cl            µM            0.46
4  Cl.Cl.N=C(N)c1ccc(CNC(=O)[C@]23C[C@H]2CCN3C(=O)[C@H](N)CC2CCCCC2)cc1            µM            0.07
5  CCOC(=O)CN[C@H](CC1CCCCC1)C(=O)N1CCC[C@@H]2C[C@@]21C(=O)NCc1ccc(N)nc1C.Cl.Cl            µM            0.11
6  Cl.N=C(N)c1ccc(CNC(=O)[C@]23C[C@H]2CCN3C(=O)[C@@H](CC2CCCCC2)NCC(=O)O)cc1            µM            0.06

====

Let's look at some compounds and their measured ACT increase (maximal; number of times by which the initial time is increased).
System: dog plasma
Assay: Anti-coagulant activity after administration per os to the dog, activated cephalin time (ACT)
Format: in vivo
Settings: oral, 5 mg/kg
Where a name gives a salt, the structure may show the parent alone.
VALUE KIND: ACT increase (maximal; number of times by which the initial time is increased) (times)

                                   compound  target_or_test_system  readout_number
0  Cl.N=C(N)c1ccc(CNC(=O)[C@]23C[C@H]2CCN3C(=O)[C@@H](CC2CCCCC2)NCC(=O)O)cc1             dog plasma             2.1
1  Cl.Cl.N=C(N)c1ccc(CNC(=O)[C@]23C[C@H]2CCN3C(=O)[C@H](N)CC2CCCCC2)cc1             dog plasma             1.4
2  CCOC(=O)CN[C@H](CC1CCCCC1)C(=O)N1CCC[C@@H]2C[C@@]21C(=O)NCc1ccc(N)nc1C.Cl.Cl             dog plasma             1.5
3  N=C(N)c1ccc(CNC(=O)[C@]23C[C@H]2CCN3C(=O)[C@H](NCC(=O)O)C2CCCCC2)cc1 [Example 17, hydrochloride]             dog plasma             3.7
4  Cl.Cl.N=C(N)c1ccc(CNC(=O)[C@]23C[C@H]2CCCN3C(=O)[C@H](N)C(c2ccccc2)c2ccccc2)cc1             dog plasma             2.0
5  Cl.Cl.N=C(N)c1ccc(CNC(=O)[C@]23C[C@H]2CCN3C(=O)[C@H](N)C(c2ccccc2)c2ccccc2)cc1             dog plasma             2.3
6  Cl.N=C(N)c1ccc(CNC(=O)[C@]23C[C@H]2CCCN3C(=O)[C@@H](CC2CCCCC2)NCC(=O)O)cc1             dog plasma             1.2
